biological target: T1, Human PDGF-BB (human, UniProt P01127 82-190); assay: SPR (Biacore), antibody captured via anti-human Fc, antigen in solution
T1 construct: Recombinant human PDGF-BB, a homodimer of two B chains; also called hPDGF-BB; huPDGF-BB
T1 sequence (P01127 82-190 limits assumed): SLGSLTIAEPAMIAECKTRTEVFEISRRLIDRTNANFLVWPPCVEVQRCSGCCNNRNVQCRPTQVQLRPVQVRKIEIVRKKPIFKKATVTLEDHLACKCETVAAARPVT
Item-by-item account of kon
assay-readout: kon

hBDI-9E8.9 (antibody, V domains shown, Humanized IgG) VH: EVTLRESGPALVKPTQTLTLTCTFSGFSLSTYGMGVGWIRQPPGKALEWLANIWWDDDKYYNPSLKNRLTISKDTSKNQAVLTITNMDPVDTATYYCARIESIGTTYSFDYWGQGTTVTVSS VL: DFVLTQSPDSLAVSLGERATINCERSSGDIGDSYVSWYQQKPGQPPKNVIYADDQRPSGVPDRFSGSGSGNSASLTISSLQAEDVAVYFCQSYDINIDIVFGGGTKVEIK; ≥ 1e+07 M⁻¹ s⁻¹
hBDI-5H1.2 (antibody, V domains shown, Humanized IgG) VH: EVTLRESGPALVKPTQTLTLTCTFSGFSLSTFGMGVGWIRQPPGKALEWLANIWWDDDKYYNPSLKNRLTISKDTSKNQVVLTMTNMDPVDTATYYCARISTGISSYYVMDAWGQGTTVTVSS VL: NFMLTQPHSVSESPGKTVTISCERSSGDIGDTYVSWYQQRPGSPPTNVIYGNDQRPSGVPDRFSGSIDSSSNSASLTISGLKTEDEADYFCQSYDSDIDIVFGGGTKLTVL; ≥ 1e+07 M⁻¹ s⁻¹
hBDI-9E8.10 (antibody, V domains shown, Humanized IgG) VH: EVTLRESGPALVKPTQTLTLTCTFSGFSLSTYGMGVGWIRQPPGKALEWLANIWWDDDKYYNPSLKNRLTISKDTSKNQAVLTITNMDPVDTATYYCARIESIGTTYSFDYWGQGTTVTVSS VL: DFQLTQSPSSLSASVGDRVTITCERSSGDIGDSYVSWYQQKPGKAPKNVIYADDQRPSGVPSRFSGSGSGNSASLTISSLQPEDFATYYCQSYDINIDIVFGQGTKVEIK; ≥ 1e+07 M⁻¹ s⁻¹
hBDI-5H1.13 (antibody, V domains shown, Humanized IgG) VH: EVTLKESGPALVKPTQTLTLTCTFSGFSLSTFGMGVGWIRQPPGKALEWLANIWWDDDKYYNPSLKNRLTISKDTSKNQAVLTITNMDPVDTATYYCARISTGISSYYVMDAWGQGTTVTVSS VL: DFQLTQSPSSLSASVGDRVTITCERSSGDIGDTYVSWYQQKPGKAPKNVIYGNDQRPSGVPSRFSGSGSGNSATLTISSLQPEDFATYFCQSYDSDIDIVFGQGTKVEIK; ≥ 1e+07 M⁻¹ s⁻¹
hBDI-5H1.9 (antibody, V domains shown, Humanized IgG) VH: EVTLRESGPALVKPTQTLTLTCTFSGFSLSTFGMGVGWIRQPPGKALEWLANIWWDDDKYYNPSLKNRLTISKDTSKNQAVLTITNMDPVDTATYYCARISTGISSYYVMDAWGQGTTVTVSS VL: DFVLTQSPDSLAVSLGERATINCERSSGDIGDTYVSWYQQKPGQPPKNVIYGNDQRPSGVPDRFSGSGSGNSATLTISSLQAEDVAVYFCQSYDSDIDIVFGGGTKVEIK; ≥ 1e+07 M⁻¹ s⁻¹
hBDI-9E8.11 (antibody, V domains shown, Humanized IgG) VH: EVQLVESGGGLVQPGGSLRLSCAFSGFSLSTYGMGVGWIRQAPGKGLEWLANIWWDDDKYYNPSLKNRLTISKDTSKNQAYLQINSLRAEDTAVYYCARIESIGTTYSFDYWGQGTLVTVSS VL: DFVLTQSPDSLAVSLGERATINCERSSGDIGDSYVSWYQQKPGQPPKNVIYADDQRPSGVPDRFSGSGSGNSASLTISSLQAEDVAVYFCQSYDINIDIVFGGGTKVEIK; ≥ 1e+07 M⁻¹ s⁻¹
hBDI-9E8.3 (antibody, V domains shown, Humanized IgG) VH: EVTLRESGPALVKPTQTLTLTCTFSGFSLSTYGMGVGWIRQPPGKALEWLANIWWDDDKYYNPSLKNRLTISKDTSKNQVVLTMTNMDPVDTATYYCARIESIGTTYSFDYWGQGTMVTVSS VL: EIVLTQSPGTLSLSPGERATLSCERSSGDIGDSYVSWYQQKPGQAPRLLIYADDQRPSGIPDRFSGSGSGTDFTLTISRLEPEDFAVYYCQSYDINIDIVFGGGTKVEIK; ≥ 1e+07 M⁻¹ s⁻¹
hBDI-5H1.8 (antibody, V domains shown, Humanized IgG) VH: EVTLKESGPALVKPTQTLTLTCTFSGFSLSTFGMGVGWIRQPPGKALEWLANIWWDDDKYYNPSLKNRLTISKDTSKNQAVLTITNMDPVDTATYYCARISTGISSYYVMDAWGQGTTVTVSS VL: EFVLTQSPGTLSLSPGERATLSCERSSGDIGDTYVSWYQQKPGQAPRLVIYGNDQRPSGIPDRFSGSGSGTDFTLTISRLEPEDFAVYYCQSYDSDIDIVFGGGTKVEIK; ≥ 1e+07 M⁻¹ s⁻¹
hBDI-9E8.8 (antibody, V domains shown, Humanized IgG) VH: EVTLRESGPALVKPTQTLTLTCTFSGFSLSTYGMGVGWIRQPPGKGLEWLANIWWDDDKYYNPSLKNRLTISKDTSKNQAVLTITNMDPVDTATYYCARIESIGTTYSFDYWGQGTMVTVSS VL: EFVLTQSPGTLSLSPGERATLSCERSSGDIGDSYVSWYQQKPGQAPRLVIYADDQRPSGIPDRFSGSGSGTDFTLTISRLEPEDFAVYYCQSYDINIDIVFGGGTKVEIK; ≥ 1e+07 M⁻¹ s⁻¹
hBDI-9E8.4 (antibody, V domains shown, Humanized IgG) VH: EVTLRESGPALVKPTQTLTLTCTFSGFSLSTYGMGVGWIRQPPGKALEWLANIWWDDDKYYNPSLKNRLTISKDTSKNQVVLTMTNMDPVDTATYYCARIESIGTTYSFDYWGQGTMVTVSS VL: EFVLTQSPGTLSLSPGERATLSCERSSGDIGDSYVSWYQQKPGQAPRLVIYADDQRPSGIPDRFSGSGSGTDFTLTISRLEPEDFAVYYCQSYDINIDIVFGGGTKVEIK; > 1e+07 M⁻¹ s⁻¹
